# study-system: T1, Cynomolgus PSGL-1(ECD)-HIS (cynomolgus macaque)
# T1 construct: also called Cyno PSGL1-His
# T1 chain: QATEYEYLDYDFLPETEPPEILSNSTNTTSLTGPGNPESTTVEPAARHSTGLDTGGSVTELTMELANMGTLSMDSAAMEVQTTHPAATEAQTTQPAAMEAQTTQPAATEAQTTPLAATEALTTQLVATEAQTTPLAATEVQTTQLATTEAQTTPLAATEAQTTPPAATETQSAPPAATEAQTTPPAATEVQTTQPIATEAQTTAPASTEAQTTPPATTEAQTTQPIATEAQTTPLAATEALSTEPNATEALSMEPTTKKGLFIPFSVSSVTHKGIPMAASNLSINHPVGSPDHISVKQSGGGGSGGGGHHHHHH
# assay-info: ELISA, plate cyno PSGL-1(ECD)-HIS
result-type: pEC50
Formally, pEC50 is defined as -log10 of the concentration c, with c in mol/L.

16L15 (antibody, V domains shown, From mouse immunisation; only variable domains given) VH: DVKLVESGGGLVKLGGSLKLSCAASGFTFSSYYMSWVRQTPEKRLEWVATISNGGGSTYYPDSVKDRFTISRDNAKNTLYLQMSSLNSEDTAVYYCAKPLYYSNPWFAYWGQGTLVTVSA VL: DVLLTQTPLSLPVSLGDQASISCRSSQSIVHSNGNTYLEWYLQKPGQSPKLLIYKVSNRFSGVPDRFSGSGSGTDFTLKISRVEAEDLGVYYCFQGSHVPRTFGGGTKLEIK has a reported pEC50 of 9.28

18F02 (antibody, V domains shown, From mouse immunisation; only variable domains given) VH: QVQLQQPGAELVKPGASVKLSCKASGYTFTSYWMHWVKQRPGQGLEWIGMIHPNSGRTNYNEKFKSKATLTVDKSSSTAYMQLSSLTSEDSAVYYCARSDYWGQGTTLTVSS VL: DIVMTQAAFSNPVTLGTSASISCRSSKSLLHSDGITYLYWFLQRPGQSPQLLIYRMSNLASGVPDRFSGSGSGTDFTLRISRVEAEDVGVYYCAQMLEFPRTFGGGTKLEIK has a reported pEC50 of 9.29

19I01 (antibody, V domains shown, From mouse immunisation; only variable domains given; also called 19101) VH: EVQLVESGGGLVKPGGSRKLSCAASGFTFSDYGMHWVRQAPEKGLEWVAYISSGSSTIYYADTVKGRFTISRDNAKNTLFLQMTSLRSEDTAMYYCARGVDGYWGQGTTLTVSS VL: DVVMTQTPLSLPVSLGDQASISCRSSQSLVHSNGNTYLHWYLQKPGQSPKFLIYKVSNRFSGVPDRFSGSGSGTDFTLKISRVEAEDLGVYFCSQTTHVPLTFGAGTKLELK has a reported pEC50 of 9.17

19N05 (antibody, V domains shown, From mouse immunisation; only variable domains given) VH: QIQLVQSGPELKKPGETVKISCKASGYTFTTYGMSWVKQAPGKGLKWMGWINTYSGVPTFADDFKGRFAFSLETSASTAYLQINNLKNEDTATFFCARNYYGNHYFDYWGQGTTLTVSS VL: DVQITQSPSYLAASPGETISINCRASNNINKYLAWYQEKPGKTNKLLIYSGSTLQSGIPSRFSGSGSGTDFTLTISSLEPEDFAMYHCQQHNYYPLTFGAGTKLELK has a reported pEC50 of 9.02

19L04 (antibody, IgG4, V domains shown, From mouse immunisation; only variable domains given) VH: QIQLVQSGPELKKPGETVKISCKASGYTFTTYGMSWVKQAPGKGLKWMGWINTYSGVPTYADDFKGRFAFSLETSASTAYLQINNLKIEDTATYFCARHYYGSHYFDYWGQGTTLTVSS VL: DIMMTQSPSSLAMSVGQKVTLRCKSSQSLLNSSNQKNYLAWYQQKPGQSPKLLVYFASTRESGVPVRFIGSGSGTDFTLTISSMQAEDLADYFCQQHYFSPLTFGAGTKLELK has a reported pEC50 of 8.95
